Test system: HL-60
Test: Cell-based proliferation assay (SRB), HL-60
Details: Homo sapiens, HL-60, Table 4
REPORTED METRIC: GI50 (µM)

Can you share its GI50? I mean this compound: CCCCCNc1cc(/C=C/C(=O)NO)ccc1SCCN(CC)CC
3.51

a: CCCNc1cc(/C=C/C(=O)NO)ccc1SCCN(CC)CC
b: CCN(CC)CCSc1ccc(/C=C/C(=O)NO)cc1NCCCc1ccccc1
c: CCCCc1nc2cc(/C=C/C(=O)NO)ccc2n1CCN(CC)CC [SB939, reference compound]
// sort entries: GI50, high to low Reply with the item labels sorted in the order that was asked for.
b, a, c
(b: 3.52 µM, a: 1.98 µM, c: 0.645 µM)
